# target-under-test: MRGPRX2-WT (wild-type MRGPRX2 receptor) (Homo sapiens, UniProt Q96LB1)
# Construct: expressed in transfected cells
# Sequence (Q96LB1 whole entry): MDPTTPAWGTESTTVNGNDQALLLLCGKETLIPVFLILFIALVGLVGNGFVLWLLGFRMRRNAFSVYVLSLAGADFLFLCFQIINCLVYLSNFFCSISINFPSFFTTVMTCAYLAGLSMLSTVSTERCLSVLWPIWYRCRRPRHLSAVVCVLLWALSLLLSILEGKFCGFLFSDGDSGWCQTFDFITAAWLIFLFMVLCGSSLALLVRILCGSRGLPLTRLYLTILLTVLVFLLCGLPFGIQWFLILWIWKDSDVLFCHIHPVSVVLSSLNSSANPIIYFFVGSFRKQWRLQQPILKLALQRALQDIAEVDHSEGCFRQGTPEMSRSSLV
# assay-comment: Primary HTS, Ca2+ mobilization (fluorescence ratio, B-score) in HEK293-Gα15 cells stably expressing wild-type MRGPRX2
# Assay type: cell-based
# test-settings: 10 μM compound, Table 1
Counter-ions that a name gives are not always drawn.
measurement-name: B-scores (WT)

> print(dat)
                                   molecule  result.number
1  COc1ccc2cc1Oc1ccc(cc1)C[C@H]1c3c(cc4c(c3Oc3cc5c(cc3OC)CCN(C)[C@@H]5C2)OCO4)CCN1C [Cepharanthine]          19.73
2  CN1CCN(c2cc3c(cc2F)c(=O)c(C(=O)O)cn3-c2ccc(F)cc2)CC1 [Difloxacin Hydrochloride]          44.81
3  Cl.NC1CCN(c2c(F)cc3c(=O)c(C(=O)O)cn(C4CC4)c3c2Cl)C1 (centres unmarked) [Clinafoxacin Hydrochloride]          26.08
4  CN1CCC(=C2c3ccccc3CC(=O)c3sccc32)CC1 [Ketotifen]          20.12
5  CO[C@@H](C(=O)N1Cc2n[nH]c(NC(=O)c3ccc(N4CCN(C)CC4)cc3)c2C1)c1ccccc1 [Danusertib]          20.37
6  COc1ccc(CN(CCN(C)C)c2ncccn2)cc1 [Thonzylamine Hydrochloride]          33.23
7  CCCCC(CC)CNC(=N)NC(=N)NCCCCCCNC(=N)NC(=N)NCC(CC)CCCC (centres unmarked) [Alexidine Hydrochloride]          30.77
8  CN(C)CCCN1c2ccccc2CCc2ccc(Cl)cc21 [Clomipramine Hydrochloride]          30.29
